For each of the compounds below, state its GI50.

Response field GI50 (HCT-15) for item O=C(/C=C/c1ccc(Cl)cc1)Oc1ccc(C=C2CCC/C(=C\c3ccc(OC(=O)/C=C/c4ccc(Cl)cc4)cc3)C2=O)cc1 : > 100 µM

Response field GI50 (HCT-15) for item O=[N+]([O-])c1nccn1COCCF : > 100 µM

Response field GI50 (HCT-15) for item Cn1cc(C(=O)C2CCCCC2)ccc1=O : > 100 µM

Response field GI50 (HCT-15) for item Cc1cc(NS(=O)(=O)c2ccc(Nc3c4ccccc4nc4ccc(C(=O)Nc5ccc(S(N)(=O)=O)cc5)cc34)cc2)no1 : > 100 µM

Response field GI50 (HCT-15) for item O=[N+]([O-])c1ccc(/N=N/c2c(O)ccc3cc(S(=O)(=O)O)ccc23)cc1 : > 100 µM

Response field GI50 (HCT-15) for item O=C(CNC(=O)OCc1ccccc1)NCCCCC(NC(=O)OCc1ccccc1)C(=O)NC(CCCCNC(=O)CNC(=O)OCc1ccccc1)C(=O)OCc1ccccc1 (stereo unspecified) : > 62.5 µM
